# TARGET_ENTITY: human ErbB2 ECD-myc/His fusion protein (human)
# ASSAY_NOTES: SPR, medium resolution Biacore 2000; mAb captured on goat anti-human IgG, ErbB2(ECD)-cMyc/His injected; 1:1 fit
REPORTED_PROPERTY: koff

Can you look up the measured koff of monoclonal antibody 1.96 (antibody, V domains shown) VH: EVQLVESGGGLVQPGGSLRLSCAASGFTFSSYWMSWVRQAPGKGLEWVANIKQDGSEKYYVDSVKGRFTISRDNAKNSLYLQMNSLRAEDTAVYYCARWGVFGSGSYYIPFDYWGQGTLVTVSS VL: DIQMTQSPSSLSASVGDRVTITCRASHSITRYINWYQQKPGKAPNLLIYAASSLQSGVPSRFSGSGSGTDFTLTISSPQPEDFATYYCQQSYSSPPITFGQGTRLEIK for me?
0.000273 s⁻¹

What do you have for monoclonal antibody 1.18.1 (antibody, V domains shown) VH: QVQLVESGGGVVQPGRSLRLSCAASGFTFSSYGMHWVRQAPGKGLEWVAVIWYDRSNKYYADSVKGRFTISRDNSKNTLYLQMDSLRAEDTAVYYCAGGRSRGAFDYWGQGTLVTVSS VL: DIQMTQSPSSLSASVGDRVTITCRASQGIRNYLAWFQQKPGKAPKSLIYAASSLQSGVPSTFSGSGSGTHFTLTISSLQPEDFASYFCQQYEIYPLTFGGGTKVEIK ?
0.000302 s⁻¹

What do you have for monoclonal antibody 1.20 (antibody, V domains shown) VH: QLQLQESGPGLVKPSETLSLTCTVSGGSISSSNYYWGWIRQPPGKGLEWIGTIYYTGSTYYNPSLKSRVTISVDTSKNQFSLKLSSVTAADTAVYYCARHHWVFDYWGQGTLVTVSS VL: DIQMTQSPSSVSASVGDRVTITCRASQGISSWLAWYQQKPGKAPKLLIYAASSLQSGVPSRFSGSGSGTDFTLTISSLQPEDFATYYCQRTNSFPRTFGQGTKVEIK ?
0.000344 s⁻¹

What do you have for monoclonal antibody 1.100.1 (antibody, V domains shown) VH: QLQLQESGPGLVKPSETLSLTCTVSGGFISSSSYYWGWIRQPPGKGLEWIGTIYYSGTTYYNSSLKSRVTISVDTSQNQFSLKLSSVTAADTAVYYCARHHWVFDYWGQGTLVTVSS VL: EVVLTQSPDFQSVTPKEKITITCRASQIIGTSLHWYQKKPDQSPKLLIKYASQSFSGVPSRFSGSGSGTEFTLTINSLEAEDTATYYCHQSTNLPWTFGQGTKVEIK ?
0.000301 s⁻¹

Data provenance is patent US20100158926A1.
